# target system: T1, TNFR1 (Homo sapiens, UniProt P19438)
# T1 chain: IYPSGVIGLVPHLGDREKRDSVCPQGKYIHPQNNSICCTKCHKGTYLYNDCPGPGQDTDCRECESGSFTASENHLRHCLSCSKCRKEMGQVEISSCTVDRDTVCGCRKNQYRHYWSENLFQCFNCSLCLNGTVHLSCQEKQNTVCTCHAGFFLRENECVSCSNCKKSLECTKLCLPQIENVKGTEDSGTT
# assay name: yeast display SC50
measurement label: apparent Kd (screen) (nM)

[
  {
    "binder": "I45L (designed binder) MTLQELLREEALRRAEAEAFRYALELLAEKFPEQKEYLLDLAEELESQIRSLSGVDVEDVRKFLDKEWAWVKELLAEHPAELAEVEAARAARLAELRAEVEAKVAA",
    "apparent Kd (screen) [nM]": 0.539
  },
  {
    "binder": "A106V (designed binder) MTLQELLREEALRRAEAEAFRYALELLAEKFPEQKEYLLDLAEEIESQIRSLSGVDVEDVRKFLDKEWAWVKELLAEHPAELAEVEAARAARLAELRAEVEAKVAV",
    "apparent Kd (screen) [nM]": 0.653
  }
]

a = L38M (designed binder) MTLQELLREEALRRAEAEAFRYALELLAEKFPEQKEYMLDLAEEIESQIRSLSGVDVEDVRKFLDKEWAWVKELLAEHPAELAEVEAARAARLAELRAEVEAKVAA
b = V85Q (designed binder) MTLQELLREEALRRAEAEAFRYALELLAEKFPEQKEYLLDLAEEIESQIRSLSGVDVEDVRKFLDKEWAWVKELLAEHPAELAEQEAARAARLAELRAEVEAKVAA
c = E44R (designed binder) MTLQELLREEALRRAEAEAFRYALELLAEKFPEQKEYLLDLAERIESQIRSLSGVDVEDVRKFLDKEWAWVKELLAEHPAELAEVEAARAARLAELRAEVEAKVAA
Sort entries by apparent Kd (screen) from minimum to maximum value. Labels, requested order.
a, b, c
